Reference for the values: PubChem BioAssay

Assay: caspase-8 TRAIL sensitization, hit retest, confirmation, cell-based, NB7+caspase-8, with/without TRAIL, luminescence panel (AID 651596)
Settings: NB7 neuroblastoma + caspase-8, without TRAIL, luminescence viability, without TRAIL, mean of runs, at 10 µM

# COMPOUND, activity [%]
data = [
    ("CCc1ccc([C@H]2[C@@H]3C(=O)C[C@@H]4C(=O)N(c5ccccc5)C(=O)[C@@H]4[C@@H]3CN2S(=O)(=O)c2ccc(C)cc2)cc1", -7.2),
    ("CCCC(=O)OCCNc1cc(Sc2nccn2C)c2nonc2c1[N+](=O)[O-]", 97.2),
    ("O=c1oc2ccccc2cc1-c1csc(Nc2nc3c(F)cccc3s2)n1", 5.5),
    ("O=C(NC1=NC2CCCCC2N1)c1ccccc1 (stereo not given)", 52.1),
    ("CC(C)(C)OC(=O)NCc1ccc(NC(=O)c2nc[nH]c2C(=O)N[C@@H](Cc2ccccc2)C(=O)OCc2ccccc2)cc1", 11.5),
]
